Molecular target: IgG receptor FcRn large subunit p51 (Homo sapiens, UniProt P55899)
Sequence (P55899 whole entry): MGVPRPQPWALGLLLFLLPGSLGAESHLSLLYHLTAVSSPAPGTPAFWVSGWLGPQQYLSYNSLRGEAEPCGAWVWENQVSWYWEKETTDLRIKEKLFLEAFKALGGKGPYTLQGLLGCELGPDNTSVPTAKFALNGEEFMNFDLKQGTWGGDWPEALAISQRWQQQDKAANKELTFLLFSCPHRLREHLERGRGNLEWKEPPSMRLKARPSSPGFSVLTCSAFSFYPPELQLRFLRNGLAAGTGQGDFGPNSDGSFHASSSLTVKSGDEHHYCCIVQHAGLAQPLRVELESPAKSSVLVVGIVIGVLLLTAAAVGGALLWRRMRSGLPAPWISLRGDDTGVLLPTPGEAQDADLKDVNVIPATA
Test: Inhibition of human IgG binding to soluble human FcRn by ELISA
pIC50: −log10 of the molar value. Peptide text beside a SMILES is read from it.

Molecule	Comparison symbol	pIC50
CC(C)C[C@H](NC(=O)CNC(=O)CNC(=O)[C@H](Cc1ccccc1)NC(=O)[C@H](Cc1cnc[nH]1)NC(=O)CNC(=O)[C@@H](NC(=O)[C@H](CCCN)NC(=O)[C@H](Cc1ccccc1)NC(=O)[C@H](CCCNC(=N)N)NC(=O)[C@@H](N)CCC(N)=O)[C@@H](C)O)C(=O)N[C@@H](Cc1ccc(O)cc1)C(=O)N1CCC[C@H]1C(=O)N[C@@H](CCC(=O)O)C(=O)N[C@@H](CC(N)=O)C(=O)NCC(=O)N1CCC[C@H]1C(=O)O	=	4.52
CC(C)C[C@H](NC(=O)CN1CC[C@@H](NC(=O)[C@H](Cc2ccccc2)NC(=O)[C@H](Cc2cnc[nH]2)NC(=O)CNC(=O)[C@@H](NC(=O)[C@@H](NC(=O)[C@H](Cc2ccccc2)NC(=O)[C@@H](N)CCCN=C(N)N)C(C)(C)S)[C@@H](C)O)C1=O)C(=O)N[C@@H](Cc1ccc(O)cc1)C(=O)N1CCC[C@H]1C(=O)N[C@@H](CS)C(=O)O	=	5.64
CC(C)C[C@H](NC(=O)CNC(=O)CNC(=O)[C@H](Cc1ccccc1)NC(=O)[C@H](Cc1cnc[nH]1)NC(=O)CNC(=O)[C@@H](NC(=O)[C@H](CCC(=O)O)NC(=O)[C@H](Cc1ccccc1)NC(=O)[C@H](CCCNC(=N)N)NC(=O)[C@@H](N)CCC(N)=O)[C@@H](C)O)C(=O)N[C@@H](Cc1ccc(O)cc1)C(=O)N1CCC[C@H]1C(=O)N[C@@H](CCCCN)C(=O)N[C@@H](CC(N)=O)C(=O)NCC(=O)N1CCC[C@H]1C(=O)O	=	4.00
CC(C)C[C@H](NC(=O)CNC(=O)CNC(=O)[C@H](C)NC(=O)[C@H](Cc1cnc[nH]1)NC(=O)CNC(=O)[C@@H](NC(=O)[C@H](CS)NC(=O)[C@H](Cc1ccccc1)NC(=O)[C@H](CCCNC(=N)N)NC(=O)[C@@H](N)CCC(N)=O)[C@@H](C)O)C(=O)N[C@@H](Cc1ccc(O)cc1)C(=O)N1CCC[C@H]1C(=O)N[C@@H](CS)C(=O)N[C@@H](CC(N)=O)C(=O)NCC(=O)N1CCC[C@H]1C(=O)O (H-QRFCTGHAGGLYPCNGP-OH)	<	3.90
CC(C)C[C@H](NC(=O)CNC(=O)CNC(=O)[C@H](Cc1ccccc1)NC(=O)[C@H](Cc1cnc[nH]1)NC(=O)CNC(=O)[C@@H](NC(=O)[C@@H](NC(=O)[C@H](Cc1ccccc1)NC(=O)[C@H](CCCNC(=N)N)NC(=O)[C@@H](N)CCC(N)=O)C(C)(C)S)[C@@H](C)O)C(=O)N[C@@H](Cc1ccc(O)cc1[N+](=O)[O-])C(=O)N1CCC[C@H]1C(=O)N[C@@H](CS)C(=O)N[C@@H](CC(N)=O)C(=O)NCC(=O)N1CCC[C@H]1C(=O)O	<	3.90
